- Test Name: Selectivity ratio of Ki for bovine pancreas chymotrypsin to Ki for human seminal fluid PSA
Non-standard residues stand in square brackets, D forms with d. Residues, ends and D or L forms follow the SMILES beside them. *: point of attachment. X4 = CC1(C)[C@@H]2C[C@H]1[C@]1(C)OB([C@@H](CCCBr)N*)O[C@@H]1C2; dboroNva(5-Br) = OB(O)[C@@H](CCCBr)N*; dboroPhe = OB(O)[C@@H](Cc1ccccc1)N*; Benzoyl(4-I) = O=C(c1ccc(I)cc1)*; X2 = CC(C)C[C@@H](N*)B(O)O; Nle = CCCC[C@H](N)C(=O)O; Cbz = O=C(OCc1ccccc1)*; Ahx = NCCCCCC(=O)O
# Lookup of reported Ratio Ki keyed by entry
// keep it numeric: no unit symbol after the value

Recorded Ratio Ki, per entry:
Compound	Measure	Numeric Readout
CCCC[C@H](NC(=O)[C@H](CCCCN)NC(=O)[C@H](CO)NC(=O)[C@H](CO)NC(=O)OCc1ccccc1)C(=O)N[C@H](CCCBr)B(O)O (Cbz-SSK[Nle]-{dboroNva(5-Br)})	Ratio Ki	8.13
CCCC[C@H](NC(=O)[C@H](CCC(N)=O)NC(=O)[C@H](CO)NC(=O)[C@H](C)NC(=O)CCCCCN)C(=O)N[C@H](CCCBr)B(O)O (H-[Ahx]ASQ[Nle]-{dboroNva(5-Br)})	Ratio Ki	3.18
CCCC[C@H](NC(=O)[C@H](CCC(N)=O)NC(=O)[C@H](CO)NC(=O)CCCCCN)C(=O)N[C@H](Cc1ccccc1)B(O)O	Ratio Ki	0.17
CCCC[C@H](NC(=O)[C@H](CCC(N)=O)NC(=O)[C@H](CO)NC(=O)[C@H](CO)NC(=O)CCCCCN)C(=O)N[C@H](CC(C)C)B(O)O (H-[Ahx]SSQ[Nle]-X2)	Ratio Ki	3.2
CCCC[C@H](NC(=O)[C@H](CCC(N)=O)NC(=O)[C@H](CO)NC(=O)[C@H](Cc1ccccc1)NC(=O)CCCCCNC(=O)c1ccc(I)cc1)C(=O)N[C@H](CCCBr)B(O)O ({Benzoyl(4-I)-Ahx}-FSQ[Nle]-{dboroNva(5-Br)})	Ratio Ki	10.1
CCCC[C@H](NC(=O)[C@H](CCC(N)=O)NC(=O)[C@H](CO)NC(=O)C[C@H](Cc1ccc2ccccc2c1)NC(=O)CCCCCN)C(=O)N[C@H](Cc1ccccc1)B(O)O	Ratio Ki	0.03

Item CCCC[C@H](NC(=O)[C@H](CCC(N)=O)NC(=O)[C@H](CO)NC(=O)[C@H](Cc1ccccc1)NC(=O)CCCCCN)C(=O)N[C@H](CCCBr)B1O[C@@H]2C[C@H]3C[C@H](C3(C)C)[C@]2(C)O1 (H-[Ahx]FSQ[Nle]-X4) has what recorded Ratio Ki?
6.77

Item `CCCC[C@H](NC(=O)[C@H](CCC(N)=O)NC(=O)[C@H](CO)NC(=O)C[C@H](Cc1ccc2ccccc2c1)NC(=O)CCCCCN)C(=O)N[C@H](CCCBr)B(O)O` has what recorded Ratio Ki?
4.94

Item `CCCC[C@H](NC(=O)[C@H](CCC(N)=O)NC(=O)[C@H](CO)NC(=O)CCCCCN)C(=O)N[C@H](CCCBr)B(O)O` has what recorded Ratio Ki?
0.83

Item CCCC[C@H](NC(=O)[C@H](CCC(N)=O)NC(=O)[C@H](CO)NC(=O)[C@H](C)NC(=O)CCCCCN)C(=O)N[C@H](Cc1ccccc1)B(O)O (H-[Ahx]ASQ[Nle]-dboroPhe) has what recorded Ratio Ki?
0.12

Item CCCC[C@H](NC(=O)[C@H](CCC(N)=O)NC(=O)[C@H](CO)NC(=O)[C@H](Cc1ccccc1)NC(=O)CCCCCN)C(=O)N[C@H](CCCBr)B(O)O (H-[Ahx]FSQ[Nle]-{dboroNva(5-Br)}) has what recorded Ratio Ki?
8.03

Item CCCC[C@H](NC(=O)[C@H](CCC(N)=O)NC(=O)[C@H](CO)NC(=O)[C@H](Cc1ccccc1)NC(=O)CCCCCN)C(=O)N[C@H](Cc1ccccc1)B(O)O (H-[Ahx]FSQ[Nle]-dboroPhe) has what recorded Ratio Ki?
0.002

Item CCCC[C@H](NC(=O)[C@H](CCCCN)NC(=O)[C@H](CO)NC(=O)[C@H](CO)NC(=O)OCc1ccccc1)C(=O)N[C@H](Cc1ccccc1)B(O)O (Cbz-SSK[Nle]-dboroPhe) has what recorded Ratio Ki?
0.11
